Molecular target: USP1 (construct USP1 (I-785, GG670, 671AA)/UAF1 (I-677)-Flag) (Homo sapiens (Human), UniProt O94782, G670A/G671A)
Sequence (O94782 whole entry G670A/G671A): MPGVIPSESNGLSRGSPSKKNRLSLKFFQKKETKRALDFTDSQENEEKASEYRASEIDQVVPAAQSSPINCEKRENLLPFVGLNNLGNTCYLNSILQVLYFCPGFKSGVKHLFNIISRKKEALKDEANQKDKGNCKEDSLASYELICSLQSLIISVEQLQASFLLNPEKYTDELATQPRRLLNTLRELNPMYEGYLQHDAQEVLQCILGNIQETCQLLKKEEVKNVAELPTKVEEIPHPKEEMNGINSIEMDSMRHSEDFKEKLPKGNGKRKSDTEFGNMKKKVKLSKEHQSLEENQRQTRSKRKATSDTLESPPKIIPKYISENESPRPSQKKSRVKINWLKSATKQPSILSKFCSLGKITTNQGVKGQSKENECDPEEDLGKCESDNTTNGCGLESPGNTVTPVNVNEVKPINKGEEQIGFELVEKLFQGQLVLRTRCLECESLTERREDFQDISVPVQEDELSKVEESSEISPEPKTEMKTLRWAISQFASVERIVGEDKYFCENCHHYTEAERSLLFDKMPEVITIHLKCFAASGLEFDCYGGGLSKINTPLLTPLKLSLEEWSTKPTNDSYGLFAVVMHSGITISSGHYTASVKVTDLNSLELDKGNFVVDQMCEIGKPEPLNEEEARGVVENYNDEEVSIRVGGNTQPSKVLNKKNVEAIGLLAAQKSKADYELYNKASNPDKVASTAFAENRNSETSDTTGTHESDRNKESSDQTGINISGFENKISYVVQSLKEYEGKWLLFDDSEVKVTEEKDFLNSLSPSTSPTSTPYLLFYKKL
Sequence (Q8TAF3 whole entry partner): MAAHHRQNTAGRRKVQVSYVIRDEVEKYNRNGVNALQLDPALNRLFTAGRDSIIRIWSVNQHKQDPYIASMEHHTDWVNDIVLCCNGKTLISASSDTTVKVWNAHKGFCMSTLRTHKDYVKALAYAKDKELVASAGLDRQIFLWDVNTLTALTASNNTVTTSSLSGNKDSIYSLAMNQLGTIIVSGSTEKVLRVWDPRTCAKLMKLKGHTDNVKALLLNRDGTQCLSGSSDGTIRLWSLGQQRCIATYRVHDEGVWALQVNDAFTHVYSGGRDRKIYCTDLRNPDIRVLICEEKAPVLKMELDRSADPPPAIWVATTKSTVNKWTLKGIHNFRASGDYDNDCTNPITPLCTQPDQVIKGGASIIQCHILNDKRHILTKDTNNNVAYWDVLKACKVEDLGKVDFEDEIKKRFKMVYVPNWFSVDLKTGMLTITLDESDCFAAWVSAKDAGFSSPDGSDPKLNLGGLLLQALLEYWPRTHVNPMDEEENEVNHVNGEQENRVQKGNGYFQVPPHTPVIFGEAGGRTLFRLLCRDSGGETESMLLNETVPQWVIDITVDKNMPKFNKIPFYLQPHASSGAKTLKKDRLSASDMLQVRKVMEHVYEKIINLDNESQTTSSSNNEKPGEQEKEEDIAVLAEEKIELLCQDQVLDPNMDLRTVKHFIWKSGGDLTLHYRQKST
Assay: Ubiquitin-Rhodamine 110 assay for USP1 activity
Conditions: USP1/UAF1 25 pM, Ub-Rh110 25 nM, 30 min preincubation
Parameter: IC50

Recorded IC50, per entry:
[
  {
    "Molecule": "Cc1cc(C(=O)N(C)C)nn1-c1ccc(Cn2c(=O)[nH]c3cnc(-c4ccccc4C4CC4)nc32)cc1",
    "Obs value": "50 to 200 nM"
  },
  {
    "Molecule": "CC(C)c1ccccc1-c1ncc2c(n1)n(Cc1ccc(NS(=O)(=O)c3nccn3C)cc1)c(=O)n2C",
    "Obs value": "200 to 2000 nM"
  },
  {
    "Molecule": "CC(C)c1ccccc1-c1ncc2[nH]c(=O)n(Cc3ccc(C(=O)N4CCCCC4C)cc3)c2n1 (stereo not drawn)",
    "Obs value": "< 50 nM"
  },
  {
    "Molecule": "CC(C)c1c(F)cccc1-c1ncc2[nH]c(=O)n(Cc3ccc(-n4ccc(C5CCNCC5)n4)cc3)c2n1",
    "Obs value": "50 to 200 nM"
  },
  {
    "Molecule": "CCC(CC)Oc1ncccc1-c1ncc2[nH]c(=O)n(Cc3ccc(-c4nc(C(F)(F)F)cn4C)cc3)c2n1",
    "Obs value": "< 50 nM"
  }
]

Endpoint output: IC50 of "Cn1cc(C(F)(F)F)nc1-c1ccc(Cn2c(=O)[nH]c3cnc(-c4cccnc4OCC(F)(F)F)nc32)cc1" . Value? < 50 nM

Endpoint output: IC50 of "CC(C)c1ccccc1-c1ncc2[nH]c(=O)n(Cc3ccc(-c4nc(C(F)(F)F)cn4C4COC4)cc3)c2n1" . Value? < 50 nM

Endpoint output: IC50 of CC1CCCN(C(=O)c2ccc(Cn3c(=O)[nH]c4cnc(-c5ccccc5C(C)C)nc43)cc2)C1 (stereo not drawn) . Value? < 50 nM

Endpoint output: IC50 of "Cc1cc(C(F)(F)F)n(-c2ccc(Cn3c(=O)[nH]c4cnc(-c5cccnc5OCC(F)(F)F)nc43)cc2)n1" . Value? 50 to 200 nM

Endpoint output: IC50 of "Cc1nc(-c2ccc(Cn3c(=O)[nH]c4cnc(-c5ccccc5C(C)C)nc43)cc2)c(C)o1" . Value? < 50 nM

Endpoint output: IC50 of "Cc1cc(Cl)nn1-c1ccc(Cn2c(=O)[nH]c3cnc(-c4ccccc4C(C)C)nc32)cc1" . Value? < 50 nM

Endpoint output: IC50 of "CC(C)c1ccccc1-c1ncc2[nH]c(=O)n(C3(c4ccc(F)cc4)CC3)c2n1" . Value? < 50 nM

Endpoint output: IC50 of "CC(C)c1ccccc1-c1ncc2[nH]c(=O)n([C@@H](C)c3ccc(F)cc3)c2n1" . Value? 50 to 200 nM

Endpoint output: IC50 of "COc1cc(C(F)(F)F)nn1-c1ccc(Cn2c(=O)[nH]c3cnc(-c4cccnc4C(C)C)nc32)cc1" . Value? < 50 nM

Endpoint output: IC50 of "Cn1cc(C(F)(F)F)nc1-c1ccc(Cn2c(=O)[nH]c3cnc(-c4ccccc4C4(O)CC4)nc32)cc1" . Value? < 50 nM

###

Quick list: IC50 per entry.
Target: USP1 (construct USP1 (I-785, GG670, 671AA)/UAF1 (I-677)-Flag) (Homo sapiens (Human), UniProt O94782, G670A/G671A)
Assay: Ubiquitin-Rhodamine 110 assay for USP1 activity
Settings: USP1/UAF1 25 pM, Ub-Rh110 25 nM, 30 min preincubation

Recorded IC50, per entry:
[
  {
    "Smiles structure": "Cc1cc(CO)n(-c2ccc(Cn3c(=O)[nH]c4cnc(-c5ccccc5C5CC5)nc43)cc2)n1",
    "Parameter": "IC50",
    "Obs value": "< 50 nM"
  },
  {
    "Smiles structure": "Cc1cc(COc2ccc(Cn3c(=O)n(C)c4cnc(-c5ccccc5C(C)C)nc43)cc2)no1",
    "Parameter": "IC50",
    "Obs value": "200 to 2000 nM"
  },
  {
    "Smiles structure": "CC(C)c1ccccc1-c1ncc2c(n1)n(Cc1ccc(OC3CCC3)cc1)c(=O)n2C",
    "Parameter": "IC50",
    "Obs value": "50 to 200 nM"
  }
]

Endpoint output: IC50 of "CC(C)c1ccccc1-c1ncc2c(n1)n(CC1CCN(S(=O)(=O)C(C)C)CC1)c(=O)n2C" . Value? 50 to 200 nM

Endpoint output: IC50 of "CC(C)c1ccccc1-c1ncc2c(n1)n(Cc1ccc(N(C)S(=O)(=O)c3nccn3C)cc1)c(=O)n2C" . Value? 50 to 200 nM

###

Quick list: IC50 per entry.
Target: USP1 (construct USP1 (I-785, GG670, 671AA)/UAF1 (I-677)-Flag) (Homo sapiens (Human), UniProt O94782, G670A/G671A)
Test: Ubiquitin-Rhodamine 110 assay for USP1 activity
Settings: USP1/UAF1 25 pM, Ub-Rh110 25 nM, 30 min preincubation
Experimental: Example 53: Ubitquin-Rhodamine 110 Assay for USP1 Activity […] Nanoliter quantities of either an 8-point or 10-point, 3-fold serial dilution in DMSO was pre-dispensed into assay plates (Perkin Elmer, ProxiPlate-384 F Plus, #6008269) for a final test concentration range of either 25 μM to 11 nM or 25 μM to 1.3 nM, respectively. […] Fluorescence was read on the Envision (Excitation at 485 nm and Emission at 535 nm; Perkin Elmer) or on the PheraSTAR (Excitation at 485 nm and Emission at 535 nm; BMG Labtech). […]

Recorded IC50, per entry:
[
  {
    "Compound": "CC(C)c1ncccc1-c1ncc2[nH]c(=O)n(Cc3ccc(-c4ccn(C)n4)cc3)c2n1",
    "IC50": "200 to 2000 nM"
  },
  {
    "Compound": "CC(=O)Nc1cn(C)c(-c2ccc(Cn3c(=O)[nH]c4cnc(-c5ccccc5C(C)C)nc43)cc2)n1",
    "IC50": "50 to 200 nM"
  },
  {
    "Compound": "COCC(C)Nc1ncccc1-c1ncc2[nH]c(=O)n(Cc3ccc(-c4nc(C(F)(F)F)cn4C)cc3)c2n1 (stereo not shown)",
    "IC50": "50 to 200 nM"
  }
]

Endpoint output: IC50 of "CC(C)c1ccccc1-c1ncc2[nH]c(=O)n(Cc3ccc(C(=O)N4CCC(F)(F)C4)cc3)c2n1" . Value? < 50 nM

###

Biological target: USP1 (construct USP1 (I-785, GG670, 671AA)/UAF1 (I-677)-Flag) (Homo sapiens (Human), UniProt O94782, G670A/G671A)
Test: Ubiquitin-Rhodamine 110 assay for USP1 activity
Conditions: USP1/UAF1 25 pM, Ub-Rh110 25 nM, 30 min preincubation
pIC50: −log10 of the molar value.
Parameter: pIC50

[
  {
    "Smiles structure": "CC(C)c1ncccc1-c1ncc2[nH]c(=O)n([C@H](C)c3ccc(-n4cccn4)cc3)c2n1",
    "pIC50": "6.70 to 7.30"
  },
  {
    "Smiles structure": "CC(C)c1ncccc1-c1ncc2[nH]c(=O)n([C@@H](C)c3ccc(-c4nc(C(F)(F)F)cn4C)cc3)c2n1",
    "pIC50": "> 7.30"
  },
  {
    "Smiles structure": "CC(C)c1ccccc1-c1ncc2[nH]c(=O)n(CC3(F)CCN(C(=O)OC(C)(C)C)CC3)c2n1",
    "pIC50": "6.70 to 7.30"
  },
  {
    "Smiles structure": "Cc1cc(C(F)F)nn1-c1ccc(Cn2c(=O)[nH]c3cnc(-c4cccnc4C(C)C)nc32)cc1",
    "pIC50": "> 7.30"
  },
  {
    "Smiles structure": "COCCOc1ncccc1-c1ncc2[nH]c(=O)n(Cc3ccc(-c4nc(C(F)(F)F)cn4C)cc3)c2n1",
    "pIC50": "6.70 to 7.30"
  },
  {
    "Smiles structure": "CC(C)c1ccccc1-c1ncc2[nH]c(=O)n(Cc3ccc(-n4cc([C@@H](C)O)nn4)cc3)c2n1",
    "pIC50": "< 5.70"
  }
]

Endpoint output: pIC50 of "Cn1cc(C(F)(F)F)nc1-c1ccc(Cn2c(=O)n(C)c3cnc(-c4cccnc4N4CC(F)(F)C4)nc32)cc1" . Value? 6.70 to 7.30

###

Target: USP1 (construct USP1 (I-785, GG670, 671AA)/UAF1 (I-677)-Flag) (Homo sapiens (Human), UniProt O94782, G670A/G671A)
Assay: Ubiquitin-Rhodamine 110 assay for USP1 activity
Assay type: biochemical
Details: USP1/UAF1 25 pM, Ub-Rh110 25 nM, 30 min preincubation
Quick list: IC50 per entry.

Endpoint output: IC50 of "O=c1[nH]c2cnc(-c3cccnc3OCC(F)(F)F)nc2n1Cc1ccc(-n2cccn2)cc1" . Value? 0.2 to 2 µM

Endpoint output: IC50 of "CC(C)c1ccccc1-c1ncc2c(n1)n(Cc1ccc(-c3cnn4c3COCC4)cc1)c(=O)n2C" . Value? 0.2 to 2 µM

Endpoint output: IC50 of "CC(C)c1ccccc1-c1ncc2[nH]c(=O)n(Cc3ccc(-c4cncn4C)cc3)c2n1" . Value? 0.2 to 2 µM

Endpoint output: IC50 of Cn1cc(C(F)(F)F)nc1-c1ccc(Cn2c(=O)[nH]c3cnc(-c4cccnc4OCC4CCOC4)nc32)cc1 (stereo not shown) . Value? < 0.05 µM
